List of EC values.
Target: Glutamate receptor ionotropic, AMPA (Rattus norvegicus) (UniProt P19491+P19492+P19493+P19490)
Assay: Positive allosteric modulation at AMPAR in rat primary cortical cells assessed as concentration required for 2 fold increase in AMPA induced current amplitude by FlipR assay
Format: cell-based
Conditions: Primary cortical neuron, filed as positive allosteric modulator
Note: unit µM is implicit; provide only the numeric part.

For orientation, consider the following solved cases.
CC1N(C2CC2)c2ccc(F)cc2S(=O)(=O)N1C (configuration not stated): 70.9
CC1N(C2CC2)c2ccc(Cl)cc2S(=O)(=O)N1C (configuration not stated): 65
O=S1(=O)c2cc(Cl)ccc2N(C2CC2)CN1CF: 2.1

Q: Given the compound O=S1(=O)c2cc(F)ccc2N(C2CC2)CN1CF , what is its reported EC?
Ans: 0.6

Q: Given the compound CC1N(C)c2ccc(Cl)cc2S(=O)(=O)N1C (configuration not stated) , what is its reported EC?
Ans: 4.3

Q: Given the compound CCN1c2ccc(Cl)cc2S(=O)(=O)N(C)C1C (configuration not stated) , what is its reported EC?
Ans: 6.2

Q: Given the compound CN1CN(C2CC2)c2ccc(F)cc2S1(=O)=O , what is its reported EC?
Ans: 9.3
